# assay-system: Histone deacetylase 1 (Homo sapiens, UniProt Q13547)
# Sequence (Q13547 whole entry): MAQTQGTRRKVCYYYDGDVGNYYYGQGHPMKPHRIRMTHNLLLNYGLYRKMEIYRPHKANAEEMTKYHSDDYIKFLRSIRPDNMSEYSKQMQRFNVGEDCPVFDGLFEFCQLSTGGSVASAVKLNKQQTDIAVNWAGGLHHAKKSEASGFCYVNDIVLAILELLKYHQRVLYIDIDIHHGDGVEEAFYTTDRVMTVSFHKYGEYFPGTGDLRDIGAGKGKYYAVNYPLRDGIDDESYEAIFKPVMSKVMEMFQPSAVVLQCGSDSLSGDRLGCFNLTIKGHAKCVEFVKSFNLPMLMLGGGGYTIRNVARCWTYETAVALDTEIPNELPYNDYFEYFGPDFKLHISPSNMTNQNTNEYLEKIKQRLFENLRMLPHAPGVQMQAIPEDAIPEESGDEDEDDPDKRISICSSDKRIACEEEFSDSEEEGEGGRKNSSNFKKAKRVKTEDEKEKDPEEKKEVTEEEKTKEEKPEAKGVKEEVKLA
# experiment-summary: Inhibition of human recombinant FLAG-tagged HDAC1 expressed in baculovirus
Reported IC50 values follow for various compounds
Enter your answer as a number in nM; do not include the unit.

State its IC50 on Histone deacetylase 1 (Homo sapiens, UniProt Q13547): NS(=O)(=O)NCCCC[C@H](NC(=O)OCc1ccc(Cl)cc1)C(=O)Nc1nc(-c2ccccc2)cs1
570

Which measured IC50 belongs to NS(=O)(=O)NCCCC[C@H](NC(=O)OCc1ccccc1)c1nc(-c2ccccc2)cs1 , tested on Histone deacetylase 1 (Homo sapiens, UniProt Q13547)?
4900

###

# assay-system: Protein deacetylase HDAC6 (Homo sapiens, UniProt Q9UBN7)
# Sequence (Q9UBN7 whole entry): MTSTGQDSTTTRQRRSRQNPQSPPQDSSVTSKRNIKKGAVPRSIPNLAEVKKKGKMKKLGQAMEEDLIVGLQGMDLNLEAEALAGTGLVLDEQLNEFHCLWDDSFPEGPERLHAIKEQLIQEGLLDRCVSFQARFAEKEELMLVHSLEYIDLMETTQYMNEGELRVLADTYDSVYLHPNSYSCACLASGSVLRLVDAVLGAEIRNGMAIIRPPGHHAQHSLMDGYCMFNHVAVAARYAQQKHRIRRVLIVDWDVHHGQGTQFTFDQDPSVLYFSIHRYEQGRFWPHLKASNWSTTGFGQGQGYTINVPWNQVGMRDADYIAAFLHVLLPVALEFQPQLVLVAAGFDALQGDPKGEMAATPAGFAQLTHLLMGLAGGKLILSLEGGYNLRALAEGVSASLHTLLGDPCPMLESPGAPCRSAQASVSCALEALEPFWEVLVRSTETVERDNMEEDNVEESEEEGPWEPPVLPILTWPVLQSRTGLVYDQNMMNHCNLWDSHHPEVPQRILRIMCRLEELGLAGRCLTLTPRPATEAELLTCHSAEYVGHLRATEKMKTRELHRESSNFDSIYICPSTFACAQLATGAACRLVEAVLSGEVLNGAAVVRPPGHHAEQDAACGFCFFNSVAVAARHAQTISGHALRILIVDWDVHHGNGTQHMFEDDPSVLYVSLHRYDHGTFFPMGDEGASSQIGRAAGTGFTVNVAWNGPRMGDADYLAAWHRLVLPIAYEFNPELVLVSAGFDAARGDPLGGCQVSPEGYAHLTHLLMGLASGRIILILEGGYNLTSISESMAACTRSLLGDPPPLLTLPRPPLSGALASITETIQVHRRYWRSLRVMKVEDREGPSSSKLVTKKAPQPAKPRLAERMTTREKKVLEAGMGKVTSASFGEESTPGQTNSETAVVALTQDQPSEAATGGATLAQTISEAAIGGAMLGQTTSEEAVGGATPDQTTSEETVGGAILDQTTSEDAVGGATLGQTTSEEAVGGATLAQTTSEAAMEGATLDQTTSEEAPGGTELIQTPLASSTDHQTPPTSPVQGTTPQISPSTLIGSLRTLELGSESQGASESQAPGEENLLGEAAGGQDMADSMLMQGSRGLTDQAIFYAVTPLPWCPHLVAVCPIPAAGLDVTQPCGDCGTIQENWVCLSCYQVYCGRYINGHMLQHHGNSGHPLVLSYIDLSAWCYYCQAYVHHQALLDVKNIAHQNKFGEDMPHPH
# experiment-summary: Inhibition of human recombinant His-tagged HDAC6 expressed in baculovirus
measure-name: pIC50
pIC50 field: float, defined as -log10 of concentration (mol/L).

Example results:
Requested read-out: pIC50. Entry: NS(=O)(=O)NCCCC[C@H](NC(=O)Cc1ccccc1)C(=O)Nc1nc(-c2ccccc2)cs1
6.82

# pIC50 lookup, item CCOC(=O)c1csc(NC(=O)[C@H](CCCCNS(N)(=O)=O)NC(=O)OCc2ccccc2)n1
6.24

// query pIC50 value for entry NS(=O)(=O)NCCCC[C@H](NC(=O)OCc1ccccc1)c1nc(-c2ccc(F)cc2)no1
5.77

Let us move to another entry and its pIC50.
Can you share its pIC50? I mean this compound: NS(=O)(=O)NCCCC[C@H](NC(=O)OCc1ccccc1)C(=O)Nc1nc(-c2ccc(Cl)cc2)cs1
6.60

###

# assay-system: Protein deacetylase HDAC6 (Homo sapiens, UniProt Q9UBN7)
# experiment-summary: Inhibition of human recombinant His-tagged HDAC6 expressed in baculovirus
pIC50: −log10 of the molar value.
Threshold rule: pIC50 greater than or equal to 6 is Satisfied; below that, Not satisfied.

Reference set, count: 3
Is it the case that NS(=O)(=O)NCCCC[C@H](NC(=O)NCc1ccc(F)cc1)C(=O)Nc1nc(-c2ccccc2)cs1 has pIC50 reaching or exceeding 6?
Satisfied

Does the reported pIC50 for NS(=O)(=O)NCCCC[C@H](NC(=O)OCc1cccnc1)C(=O)Nc1nc(-c2ccccc2)cs1 fall at or above the 6 mark?
Satisfied

Would you say Cn1nc([C@H](CCCCNS(N)(=O)=O)NC(=O)OCc2ccccc2)nc1-c1ccccc1 shows pIC50 at minimum 6?
Not satisfied

***
Determine whether this molecule has pIC50 no lower than 6: NS(=O)(=O)NCCCC[C@H](NC(=O)OCc1cccc(Cl)c1)C(=O)Nc1nc(-c2ccccc2)cs1
Satisfied

Does COc1ccc(-c2csc(NC(=O)[C@H](CCCCNS(N)(=O)=O)NC(=O)OCc3ccccc3)n2)cc1 have a reported pIC50 of at least 6?
Satisfied

###

# assay-system: Histone deacetylase 1 (Homo sapiens, UniProt Q13547)
# experiment-summary: Inhibition of human recombinant FLAG-tagged HDAC1 expressed in baculovirus
pIC50: −log10 of the molar value.
Quick rule for you: pIC50 at 6 or higher means Satisfied, lower means Not satisfied.

As a guide, the following entries are already answered.
# check: pIC50 of NS(=O)(=O)NCCCC[C@H](NC(=O)OCc1ccccc1)c1nc2ccccc2[nH]1 is greater than or equal to 6
Not satisfied

Does pIC50 meet or surpass 6 for NS(=O)(=O)NCCCC[C@H](NC(=O)OCc1ccccc1)c1c[nH]c(-c2ccccc2)n1 ?
Satisfied

Reported pIC50 at or above 6? NS(=O)(=O)NCCCC[C@H](NC(=O)OCc1ccccc1)C(=O)Nc1nccs1
Not satisfied

---
Is it the case that NS(=O)(=O)NCCCC[C@H](NC(=O)OCc1ccccc1)c1nnc(-c2ccccc2)o1 has pIC50 reaching or exceeding 6?
Not satisfied

Reported pIC50 reaches at least 6 for NS(=O)(=O)NCCCC[C@H](NC(=O)OCc1cccc(Cl)c1)C(=O)Nc1nc(-c2ccccc2)cs1 ?
Satisfied

Is pIC50 for N[C@@H](CCCCNS(N)(=O)=O)C(=O)Nc1nc(-c2ccccc2)cs1 at or above 6?
Not satisfied

hey, is pIC50 for this one >= 6? CN(C)CCOc1ccc(-c2nc([C@H](CCCCNS(N)(=O)=O)NC(=O)OCc3ccccc3)cs2)cc1
Satisfied

Record NS(=O)(=O)NCCCC[C@H](NC(=O)OCc1ccccc1)c1nc(-c2ccc(F)cc2)no1 ; criterion: pIC50 no lower than 6. Met?
Not satisfied

###

# assay-system: UniProt:Q9UBN7
# experiment-summary: Inhibition of human recombinant His-tagged HDAC6 expressed in baculovirus
measure-name: pIC50
Remember, pIC50 is on a log scale: it is -log10 of the molar concentration.

Worked set:
Bench note: what pIC50 did NS(=O)(=O)NCCCC[C@H](NC(=O)OCc1ccccc1)c1csc(-c2ccccc2)n1 show?
6.40

Which pIC50 is listed for NS(=O)(=O)NCCCC[C@H](NC(=O)OCc1ccccc1)c1nc2ccccc2[nH]1 ?
7.00

Value lookup for pIC50; key = COc1cccc(-c2csc(NC(=O)[C@H](CCCCNS(N)(=O)=O)NC(=O)OCc3ccccc3)n2)c1
6.38

Can you share its pIC50? I mean this compound: NS(=O)(=O)NCCCC[C@H](NS(=O)(=O)Cc1ccccc1)C(=O)Nc1nc(-c2ccccc2)cs1
6.28

State the recorded pIC50 for this entry: NS(=O)(=O)NCCCC[C@H](NC(=O)Nc1ccccc1)C(=O)Nc1nc(-c2ccccc2)cs1
6.25

Look at this compound and give its reported pIC50. CCOC(=O)N[C@@H](CCCCNS(N)(=O)=O)C(=O)Nc1nc(-c2ccccc2)cs1
6.70

pIC50 lookup needed for NS(=O)(=O)NCCCC[C@H](NC(=O)OCc1ccccc1)C(=O)Nc1nc(-c2ccccc2)c(-c2ccccc2)s1 , thanks.
6.35

Now turn to the next compound.
Which pIC50 is listed for CC(C)(C)c1csc(NC(=O)[C@H](CCCCNS(N)(=O)=O)NC(=O)OCc2ccccc2)n1 ?
6.08

###

Collected IC50 values appear next to each entry.
# assay-system: Histone deacetylase 1 (Homo sapiens)
# experiment-summary: Inhibition of human recombinant FLAG-tagged HDAC1 expressed in baculovirus
Reply numerically in µM, unit not repeated.

Which IC50 is reported for this compound? NS(=O)(=O)NCCCC[C@H](NS(=O)(=O)Cc1ccccc1)C(=O)Nc1nc(-c2ccccc2)cs1
1.4

Look up IC50 for this compound: NS(=O)(=O)NCCCC[C@H](NC(=O)Cc1ccccc1)C(=O)Nc1nc(-c2ccccc2)cs1
0.7

Could you share which IC50 value was measured for CC(C)c1ccc(-c2csc(NC(=O)[C@H](CCCCNS(N)(=O)=O)NC(=O)OCc3ccccc3)n2)cc1 ?
0.52

Any idea what IC50 was measured for CCOC(=O)N[C@@H](CCCCNS(N)(=O)=O)C(=O)Nc1nc(-c2ccccc2)cs1 ?
2.5

Field request: IC50 | item: COc1ccc2[nH]c(C)c(CC(=O)N[C@@H](CCCCNS(N)(=O)=O)C(=O)Nc3nc(-c4ccccc4)cs3)c2c1
0.064

Reported IC50, compound NS(=O)(=O)NCCCC[C@H](NC(=O)OCc1cccnc1)C(=O)Nc1nc(-c2ccccc2)cs1 : ____
1.5

More entries:
What value of IC50 has been recorded for this entry: Cn1nc([C@H](CCCCNS(N)(=O)=O)NC(=O)OCc2ccccc2)nc1-c1ccccc1
4.3
